System: Plasmodium berghei
Measurement Protocol: Luciferase/luciferin-expressing antifolate-resistant parasites were used to infect a culture of HepG2 cells that were pre-incubated with compounds. Infected hepatocytes emit light due to the luciferase reaction. Assay results are presented as the percent inhibition of light emission compared to control. […]
Format: functional
Condition Summary: sporozoite, FFLUC_HILL_SLOPE 1.33, FFLUC_R_SQUARED 0.248, HEPG2TOX_HILL_SLOPE 10.3, HEPG2TOX_R_SQUARED 0.738, read-out: LUCIFERASE INFECTION ASSAY - IC50
pIC50: −log10 of the molar value.

# Molecule, Measured Target, pIC50
rows = [
    ("CNC(=O)c1nnsc1[S+]([O-])c1ccc(Cl)cc1 (stereo unspecified)", "Plasmodium berghei", "< 4.96"),
]

* * *

Tested on: Plasmodium berghei
Measurement Protocol: Luciferase/luciferin-expressing antifolate-resistant parasites were used to infect a culture of HepG2 cells that were pre-incubated with compounds. Infected hepatocytes emit light due to the luciferase reaction. Assay results are presented as the percent inhibition of light emission compared to control. […]
Assay type: functional
Condition Summary: sporozoite, HEPG2TOX_HILL_SLOPE 1.9, HEPG2TOX_R_SQUARED 0.384, PBLUC_HILL_SLOPE 3.75, PBLUC_R_SQUARED 0.218, read-out: LUCIFERASE INFECTION ASSAY - IC50

# Smi, Measured Target, IC50, µM
data = [
    ("CC(=O)c1ccccc1NC(=O)COC(=O)c1c2c(nc3ccccc13)CCC2", "Plasmodium berghei", 6.16),
]

* * *

Test system: Plasmodium berghei
Measurement Protocol: Luciferase/luciferin-expressing antifolate-resistant parasites were used to infect a culture of HepG2 cells that were pre-incubated with compounds. Infected hepatocytes emit light due to the luciferase reaction. Assay results are presented as the percent inhibition of light emission compared to control. […]
Format: functional
Condition Summary: sporozoite, PBLUC_HILL_SLOPE 1.77, PBLUC_R_SQUARED 0.752, read-out: LUCIFERASE INFECTION ASSAY - IC50

# Compound, IC50 (µM)
measured = [
    ("CN(C)c1ccc(NC(=O)C2(C)CCCCN2C)cc1 (stereo unspecified)", 6.68),
]

* * *

Tested on: Plasmodium berghei
Measurement Protocol: Luciferase/luciferin-expressing antifolate-resistant parasites were used to infect a culture of HepG2 cells that were pre-incubated with compounds. Infected hepatocytes emit light due to the luciferase reaction. Assay results are presented as the percent inhibition of light emission compared to control. […]
Assay type: functional
Condition Summary: sporozoite, read-out: LUCIFERASE INFECTION ASSAY - IC90

# Molecule, IC90
rows = [
    ("C[C@H](Nc1ccc(C(F)(F)F)cc1[N+](=O)[O-])C(=O)Nc1nc2ccccc2[nH]1", "6.29 µM"),
    ("COc1cccc(-c2cn3c(-c4ccc5c(ccn5C)c4)cnc3cn2)c1F", "0.145 µM"),
    ("Cc1cc2nnc(SC(C)C(=O)Nc3ccc([N+](=O)[O-])cc3C(F)(F)F)n2c2ccccc12 (configuration not stated)", "> 10 µM"),
    ("Cc1nc2ccc(NC(=O)c3ccc4[nH]c(C)c(C)c4c3)cc2s1", "> 9.84 µM"),
    ("Cc1ccc(Oc2c(C)nc(-c3ccccc3)nc2O)cc1", "1.76 µM"),
    ("Cc1ccccc1-c1ccc(CN2CCc3c(c(C(=O)NCc4ccccc4)nn3CCO)C2)cc1", "2.98 µM"),
    ("COc1ccc2c(c1)[nH]c1c(N(C)CCc3ccc(OC)c(OC)c3)ncnc12", "> 8.41 µM"),
    ("Cc1ccccc1-n1c(SCC(=O)Nc2sc3c(c2C(N)=O)CCC3)nc2ccccc2c1=O", "> 10 µM"),
    ("COc1ccc(CN2C(=O)N(C)C3(CCN(Cc4ccc(N5CCCC5)cc4)CC3)C2=O)cc1", "> 7.13 µM"),
    ("CN(C)C(=O)c1cccc(-c2cn3c(-c4ccc(CO)cc4)cnc3cn2)c1", "> 8.86 µM"),
    ("CCOc1cc(/C=C(\\C#N)C(=O)c2cccc(OC)c2)cc(Cl)c1O", "> 10 µM"),
    ("COc1cc(OC)cc(OCC(O)Cn2ccnc2)c1 (configuration not stated)", "> 11.9 µM"),
    ("O=C(C1CCCN(c2cnccn2)C1)N1CCN(C(c2ccc(F)cc2)c2ccc(F)cc2)CC1 (configuration not stated)", "> 10 µM"),
    ("Cc1cccc(Cn2c(CN3CCCCC3)nc3ccccc32)c1", "9.84 µM"),
    ("CCN(CC)c1ccc(NC(=S)NC(=O)c2ccco2)cc1S(=O)(=O)Nc1ccc(OC)cc1", "> 10 µM"),
    ("O=C(NCCSCc1ccc(Cl)cc1Cl)c1ccc(Cl)cc1", "> 8.81 µM"),
    ("O=C1C(=O)N(Cc2cc3c(cc2Cl)OCO3)c2ccc(Br)cc21", "> 8.36 µM"),
    ("COc1ccc(-c2cnc3ccc(-c4cccc(C(F)(F)F)c4)nn23)cc1OC", "9.93 µM"),
    ("Cn1c[n+](C2=C(NS(=O)(=O)c3ccc([N+](=O)[O-])cc3)C(=O)c3ccccc3C2=O)c2ccccc21", "5.03 µM"),
    ("Cc1ccc(NC2c3ccccc3-c3ccccc32)cc1", "> 10 µM"),
    ("CC(C)c1nc(NCCCN2CCOCC2)c(C#N)c2c1CCCC2", "> 9.64 µM"),
    ("CCOc1ccc(CN(C)c2ncnc3sc(C)c(C)c23)cc1OC", "3.65 µM"),
    ("Cc1cc2oc(=O)cc(Cn3cnc([N+](=O)[O-])c3)c2cc1C", "> 10 µM"),
    ("COc1ccc2nc(C)cc(NC(C)CCc3ccccc3)c2c1 (configuration not stated)", "> 10 µM"),
    ("O=C(Nc1nc2ccccn2c1C(=O)NC1CCCCC1)c1ccccc1Cl", "8.12 µM"),
    ("COc1ccc(S(=O)(=O)N2CCc3ccccc32)cc1C(=O)NOCc1ccccc1", "> 10 µM"),
    ("CSCCC(NC(=O)c1ccc([N+](=O)[O-])cc1Cl)C(=O)OCC(=O)Nc1ccc(OC(F)(F)F)cc1 (configuration not stated)", "> 10 µM"),
    ("CCCCN(C(=O)c1csc(-c2ccc(C(C)C)cc2)n1)c1c(N)n(CCC)c(=O)[nH]c1=O", "> 10 µM"),
    ("O=C(OCC(=O)N(CCc1ccccc1)Cc1ccccc1)c1ccccc1NCCO", "> 10 µM"),
    ("Cc1oc(-n2cccc2)c(C#N)c1C(=O)Nc1ccn(C)n1", "> 10 µM"),
    ("CC(C)c1ccc(-c2noc(CCC(=O)Nc3ccn(C)n3)n2)cc1", "> 10 µM"),
    ("Cc1cccc2sc(N(Cc3ccccc3)C(=O)CSC(c3ccccc3)c3ccccc3)nc12", "> 10 µM"),
    ("O=C(Oc1ccc(Cl)cc1Cc1ccccc1)c1ccccc1-c1ccc(C(F)(F)F)cc1", "> 10 µM"),
    ("Cc1ccc(-c2nn(-c3ccccc3)cc2/C=C(/C(=O)c2ccccc2)c2nc3ccccc3s2)o1", "> 10 µM"),
    ("COc1ccc(COC(=O)c2sc3nc4n(c(=O)c3c2C)CCC4)cc1F", "> 10 µM"),
    ("CCc1ccc(C2=NNC(=Nc3ccccc3F)SC2)s1", "> 10 µM"),
    ("COc1ccc2c(c1)CCCN2C(=O)c1occc1C", "1.23 µM"),
    ("O=C(Cn1c(=O)ccn(Cc2ccccc2)c1=O)N1CCC(n2c(=O)[nH]c3ccccc32)CC1", "> 10 µM"),
    ("O=C(O)c1c2c(nc3ccccc13)/C(=C/c1ccccc1Cl)CC2", "> 10 µM"),
    ("CCn1c2ccccc2c2cc(NC(=O)COC(=O)CCNS(=O)(=O)c3cccc(C)c3)ccc21", "> 10 µM"),
    ("CC(=O)Nc1ccc(Oc2ccnc3cc(Cl)ccc23)cc1", "> 10 µM"),
    ("CN1C(=O)N(CN2CCN(c3ccccn3)CC2)C(=O)C12CCCCC2", "> 10 µM"),
]

* * *

System: Plasmodium berghei
Measurement Protocol: Luciferase/luciferin-expressing antifolate-resistant parasites were used to infect a culture of HepG2 cells that were pre-incubated with compounds. Infected hepatocytes emit light due to the luciferase reaction. Assay results are presented as the percent inhibition of light emission compared to control. […]
Format: functional
Condition Summary: sporozoite, HEPG2TOX_HILL_SLOPE 7.41, HEPG2TOX_R_SQUARED 0.305, PBLUC_HILL_SLOPE 5.23, PBLUC_R_SQUARED 0.705, read-out: LUCIFERASE INFECTION ASSAY - IC50
Endpoint: IC50 (µM)

# Smi, Endpoint, Reported Value
rows = [
    ("COc1cc(C)c(C(c2ccc(N(C)C)cc2)c2ccc(N(C)C)cc2)cc1C", "IC50", 4.24),
]
